tested on: SK-MEL-5; experiment: Growth inhibition of human SK-MEL-5 cells measured after 48 hrs by SRB assay; type: functional
GI50 values, listed per item
observation_type: GI50 (µM)

>>> measurement("CCO[C@H]1C=C2CC[C@@H]3[C@H]([C@@H](O)C[C@]4(C)[C@@H](c5ccc(=O)oc5)CC[C@]34O)[C@@]2(C)CC1")
1.36
>>> measurement("CCO[C@@H]1C=C2CC[C@@H]3[C@H]([C@@H](O)C[C@]4(C)[C@@H](c5ccc(=O)oc5)CC[C@]34O)[C@@]2(C)CC1")
0.072
>>> measurement("C[C@]12CC[C@H](O)C=C1CC[C@@H]1[C@@H]2[C@@H](O)C[C@]2(C)[C@@H](c3ccc(=O)oc3)CC[C@]12O")
0.703
>>> measurement("CC(=O)OC[C@H]1O[C@@H](O[C@@H]2C=C3CC[C@@H]4[C@H](C(=O)C[C@]5(C)[C@@H](c6ccc(=O)oc6)CC[C@]45O)[C@@]3(C)CC2)[C@H](OC(C)=O)[C@@H](OC(C)=O)[C@@H]1OC(C)=O")
5.09

----------
test system: OVCAR-5; test: Growth inhibition of human OVCAR-5 cells measured after 48 hrs by SRB assay; type: functional
observation_type: GI50 (nM)

>>> measurement("C[C@]12CC[C@@H](O)C=C1CC[C@@H]1[C@@H]2[C@@H](O)C[C@]2(C)[C@@H](c3ccc(=O)oc3)CC[C@]12O")
2840
>>> measurement("C[C@]12CC[C@H](O[C@@H]3O[C@H](CO)[C@@H](O)[C@H](O)[C@H]3O)C=C1CC[C@@H]1[C@@H]2[C@@H](O)C[C@]2(C)[C@@H](c3ccc(=O)oc3)CC[C@]12O")
60
>>> measurement("C[C@]12CC[C@H](O)C=C1CC[C@@H]1[C@@H]2[C@@H](O)C[C@]2(C)[C@@H](c3ccc(=O)oc3)CC[C@]12O")
2360
>>> measurement("CC(=O)OC[C@H]1O[C@@H](O[C@@H]2C=C3CC[C@@H]4[C@H]([C@@H](O)C[C@]5(C)[C@@H](c6ccc(=O)oc6)CC[C@]45O)[C@@]3(C)CC2)[C@H](OC(C)=O)[C@@H](OC(C)=O)[C@@H]1OC(C)=O")
381
>>> measurement("C[C@]12C[C@H](O)[C@H]3[C@@H](CCC4=C[C@@H](O[C@@H]5O[C@H](CO)[C@@H](O)[C@H](O)[C@H]5O)CC[C@@]43CO)[C@@]1(O)CC[C@@H]2c1ccc(=O)oc1")
17

----------
GI50 values, listed per item
test system: UACC-62; assay: Growth inhibition of human UACC-62 cells measured after 48 hrs by SRB assay; type: functional
observation_type: GI50 (nM)

>>> measurement("C[C@]12CC[C@@H](O)C=C1CC[C@@H]1[C@@H]2[C@@H](O)C[C@]2(C)[C@@H](c3ccc(=O)oc3)CC[C@]12O")
3310
>>> measurement("CC(=O)OC[C@H]1O[C@@H](O[C@@H]2C=C3CC[C@@H]4[C@H]([C@@H](O)C[C@]5(C)[C@@H](c6ccc(=O)oc6)CC[C@]45O)[C@@]3(C)CC2)[C@H](OC(C)=O)[C@@H](OC(C)=O)[C@@H]1OC(C)=O")
155
>>> measurement("CCO[C@@H]1C=C2CC[C@@H]3[C@H]([C@@H](O)C[C@]4(C)[C@@H](c5ccc(=O)oc5)CC[C@]34O)[C@@]2(C)CC1")
145
>>> measurement("C[C@]12CC[C@H]3[C@@H](CC[C@H]4C[C@@H](O)CC[C@@]43C=O)[C@@]1(O)CC[C@@H]2c1ccc(=O)oc1")
3200
>>> measurement("C[C@]12CC[C@H](O)C=C1CC[C@@H]1[C@@H]2[C@@H](O)C[C@]2(C)[C@@H](c3ccc(=O)oc3)CC[C@]12O")
1760
>>> measurement("C[C@]12CC[C@H](O[C@@H]3O[C@H](CO)[C@@H](O)[C@H](O)[C@H]3O)C=C1CC[C@@H]1[C@@H]2[C@@H](O)C[C@]2(C)[C@@H](c3ccc(=O)oc3)CC[C@]12O")
7

----------
GI50 values, listed per item
tested on: HL-60; experiment: Growth inhibition of human HL-60 cells measured after 48 hrs by SRB assay; type: functional
observation_type: GI50

>>> measurement("CCO[C@@H]1C=C2CC[C@@H]3[C@H]([C@@H](O)C[C@]4(C)[C@@H](c5ccc(=O)oc5)CC[C@]34O)[C@@]2(C)CC1")
"120 nM"
>>> measurement("CC(=O)OC[C@H]1O[C@@H](O[C@@H]2C=C3CC[C@@H]4[C@H](C(=O)C[C@]5(C)[C@@H](c6ccc(=O)oc6)CC[C@]45O)[C@@]3(C)CC2)[C@H](OC(C)=O)[C@@H](OC(C)=O)[C@@H]1OC(C)=O")
"7370 nM"
>>> measurement("C[C@]12CC[C@H](O)C=C1CC[C@@H]1[C@@H]2[C@@H](O)C[C@]2(C)[C@@H](c3ccc(=O)oc3)CC[C@]12O")
"563 nM"
>>> measurement("C[C@]12CC[C@H]3[C@@H](CC[C@H]4C[C@@H](O)CC[C@@]43C=O)[C@@]1(O)CC[C@@H]2c1ccc(=O)oc1")
"3410 nM"
>>> measurement("CC(=O)OC[C@H]1O[C@@H](O[C@@H]2C=C3CC[C@@H]4[C@H]([C@@H](O)C[C@]5(C)[C@@H](c6ccc(=O)oc6)CC[C@]45O)[C@@]3(C)CC2)[C@H](OC(C)=O)[C@@H](OC(C)=O)[C@@H]1OC(C)=O")
"140 nM"

----------
GI50 values, listed per item
system: U-251; assay: Growth inhibition of human U-251 cells measured after 48 hrs by SRB assay; format: functional
observation_type: GI50

>>> measurement("C[C@]12CC[C@H](O)C=C1CC[C@@H]1[C@@H]2[C@@H](O)C[C@]2(C)[C@@H](c3ccc(=O)oc3)CC[C@]12O")
"1280 nM"
>>> measurement("CC(=O)OC[C@H]1O[C@@H](O[C@@H]2C=C3CC[C@@H]4[C@H](C(=O)C[C@]5(C)[C@@H](c6ccc(=O)oc6)CC[C@]45O)[C@@]3(C)CC2)[C@H](OC(C)=O)[C@@H](OC(C)=O)[C@@H]1OC(C)=O")
"> 10000 nM"
>>> measurement("CCO[C@@H]1C=C2CC[C@@H]3[C@H]([C@@H](O)C[C@]4(C)[C@@H](c5ccc(=O)oc5)CC[C@]34O)[C@@]2(C)CC1")
"151 nM"
>>> measurement("CC(=O)OC[C@H]1O[C@@H](O[C@@H]2C=C3CC[C@@H]4[C@H]([C@@H](O)C[C@]5(C)[C@@H](c6ccc(=O)oc6)CC[C@]45O)[C@@]3(C)CC2)[C@H](OC(C)=O)[C@@H](OC(C)=O)[C@@H]1OC(C)=O")
"295 nM"
>>> measurement("C[C@]12CC[C@H](O[C@@H]3O[C@H](CO)[C@@H](O)[C@H](O)[C@H]3O)C=C1CC[C@@H]1[C@@H]2[C@@H](O)C[C@]2(C)[C@@H](c3ccc(=O)oc3)CC[C@]12O")
"79 nM"
>>> measurement("C[C@]12CC[C@H]3[C@@H](CC[C@H]4C[C@@H](O)CC[C@@]43C=O)[C@@]1(O)CC[C@@H]2c1ccc(=O)oc1")
"4470 nM"
>>> measurement("C[C@]12C[C@H](O)[C@H]3[C@@H](CCC4=C[C@@H](O[C@@H]5O[C@H](CO)[C@@H](O)[C@H](O)[C@H]5O)CC[C@@]43CO)[C@@]1(O)CC[C@@H]2c1ccc(=O)oc1")
"25 nM"

----------
tested on: K562; assay: Growth inhibition of human K562 cells measured after 48 hrs by SRB assay; format: functional
GI50 values, listed per item
observation_type: GI50 (nM)

>>> measurement("C[C@]12C[C@H](O)[C@H]3[C@@H](CCC4=C[C@@H](O[C@@H]5O[C@H](CO)[C@@H](O)[C@H](O)[C@H]5O)CC[C@@]43CO)[C@@]1(O)CC[C@@H]2c1ccc(=O)oc1")
30
>>> measurement("CCO[C@@H]1C=C2CC[C@@H]3[C@H]([C@@H](O)C[C@]4(C)[C@@H](c5ccc(=O)oc5)CC[C@]34O)[C@@]2(C)CC1")
129
>>> measurement("C[C@]12CC[C@H](O)C=C1CC[C@@H]1[C@@H]2[C@@H](O)C[C@]2(C)[C@@H](c3ccc(=O)oc3)CC[C@]12O")
1390
>>> measurement("CC(=O)OC[C@H]1O[C@@H](O[C@@H]2C=C3CC[C@@H]4[C@H]([C@@H](O)C[C@]5(C)[C@@H](c6ccc(=O)oc6)CC[C@]45O)[C@@]3(C)CC2)[C@H](OC(C)=O)[C@@H](OC(C)=O)[C@@H]1OC(C)=O")
386
>>> measurement("C[C@]12CC[C@H]3[C@@H](CC[C@H]4C[C@@H](O)CC[C@@]43C=O)[C@@]1(O)CC[C@@H]2c1ccc(=O)oc1")
4280
>>> measurement("C[C@]12CC[C@H](O[C@@H]3O[C@H](CO)[C@@H](O)[C@H](O)[C@H]3O)C=C1CC[C@@H]1[C@@H]2[C@@H](O)C[C@]2(C)[C@@H](c3ccc(=O)oc3)CC[C@]12O")
80
>>> measurement("CCO[C@H]1C=C2CC[C@@H]3[C@H]([C@@H](O)C[C@]4(C)[C@@H](c5ccc(=O)oc5)CC[C@]34O)[C@@]2(C)CC1")
1270
>>> measurement("C[C@]12CC[C@@H](O)C=C1CC[C@@H]1[C@@H]2[C@@H](O)C[C@]2(C)[C@@H](c3ccc(=O)oc3)CC[C@]12O")
644
